- Test system: HCC-2998 colon
- Protocol notes: NCI tumour cell line growth inhibition, 48 h
Measured TGI, listed per entry for reference.
Experimental readout: TGI

>>> test_value("COc1ccc(C2NC(=O)c3cc4c(cc3N2)OCO4)cc1 (stereo not drawn)")
"7.14 µM"
>>> test_value("COc1ccc2c(c1OC)OC[C@@H](C1=CC(=O)C=C(O)C1=O)C2")
"32.3 µM"
>>> test_value("CN(C)c1nc2n(CCO)ccnc-2c(=O)n1")
"> 100 µM"
>>> test_value("CCCCCCCCCCCCCCCC(=O)Nc1ccn([C@@H]2O[C@H](CO)[C@@H](O)[C@@H]2C#N)c(=O)n1")
"> 100 µM"
>>> test_value("O=C1c2ccccc2C(=O)c2nc3c(O)cccc3cc21")
"> 100 µM"
>>> test_value("Nc1c(C(=O)N/N=C/c2ccco2)cnn1-c1ccnc2c(C(F)(F)F)cccc12")
"48.5 µM"
>>> test_value("CCSC1=CC(Cc2ccc(OC)cc2)N(C(=O)OC)C1 (stereo not drawn)")
"> 100 µM"
>>> test_value("CC(NC(=O)OC(C)(C)C)C(=O)NC1CCCC1 (stereo not drawn)")
"> 100 µM"
